- protocolNotes: Pharmacokinetics of omeprazole 40 mg alone and co-administered with levosulpiride 50 mg in healthy human volunteers (Phase-2)
- Format: in vivo
- testParameters: human, plasma, oral
- Method: The developed method was applied for evaluation of pharmacokinetics drug-drug interaction between LSP and OMP in healthy human volunteers (n = 20). Both the drugs were administered to the healthy volunteers, their blood samples were collected at specified time points and analyzed for the drug content, using the developed method. Written consent form was signed by all the volunteers and purpose of the study was explained to them. They were physically examined and medical history was recorded. […]
measuredMetric: Tmax

{"molecule": "COc1ccc2[nH]c([S+]([O-])Cc3ncc(C)c(OC)c3C)nc2c1 (stereo not shown) [Omeprazole]", "measuredMetric": "Tmax", "measured": "1.85 h"}

###

- protocolNotes: Pharmacokinetics of omeprazole 40 mg alone and co-administered with levosulpiride 50 mg in healthy human volunteers (Phase-2)
- Type: in vivo
- testParameters: plasma, oral; omeprazole 40 mg alone; healthy human volunteers (n = 20); mean ± SD
measuredMetric: half-life (h)

{"compound": "COc1ccc2[nH]c([S+]([O-])Cc3ncc(C)c(OC)c3C)nc2c1 (stereo not shown) [Omeprazole]", "measured": 2.3}

###

- protocolNotes: Pharmacokinetics of levosulpiride 50 mg alone and co-administered with omeprazole 40 mg in healthy human volunteers (Phase-1)
- Type: in vivo
- testParameters: human, plasma, oral, 50 mg
measuredMetric: AUC(0-t) (ng·h/mL)

{"compound": "CCN1CCC[C@H]1CNC(=O)c1cc(S(N)(=O)=O)ccc1OC [Levosulpiride]", "measuredMetric": "AUC(0-t)", "measured": 1540}

###

- protocolNotes: Pharmacokinetics of levosulpiride 50 mg alone and co-administered with omeprazole 40 mg in healthy human volunteers (Phase-1)
- Assay type: in vivo
- testParameters: human, plasma, oral, 50 mg

{"compound": "CCN1CCC[C@H]1CNC(=O)c1cc(S(N)(=O)=O)ccc1OC [Levosulpiride]", "half-life / h": 13.3}

###

- protocolNotes: Pharmacokinetics of levosulpiride 50 mg alone and co-administered with omeprazole 40 mg in healthy human volunteers (Phase-1)
- Assay type: in vivo
- testParameters: human, plasma, oral

{"molecule": "CCN1CCC[C@H]1CNC(=O)c1cc(S(N)(=O)=O)ccc1OC [Levosulpiride]", "unitLabel": "ng·h/mL", "AUC(0-t)": 1770}

###

- protocolNotes: Pharmacokinetics of levosulpiride 50 mg alone and co-administered with omeprazole 40 mg in healthy human volunteers (Phase-1)
- Type: in vivo
- testParameters: human, plasma, oral

{"compound": "CCN1CCC[C@H]1CNC(=O)c1cc(S(N)(=O)=O)ccc1OC [Levosulpiride]", "AUC(0-inf)": "2210 ng·h/mL"}

###

- protocolNotes: Pharmacokinetics of omeprazole 40 mg alone and co-administered with levosulpiride 50 mg in healthy human volunteers (Phase-2)
- Format: in vivo
- testParameters: plasma, oral; omeprazole 40 mg single dose administered alone; healthy human volunteers (n = 20); mean ± SD
measuredMetric: Cmax

{"compound": "COc1ccc2[nH]c([S+]([O-])Cc3ncc(C)c(OC)c3C)nc2c1 (stereo not shown) [Omeprazole]", "measuredMetric": "Cmax", "measured": "1140 ng/mL"}

###

- protocolNotes: Pharmacokinetics of levosulpiride 50 mg alone and co-administered with omeprazole 40 mg in healthy human volunteers (Phase-1)
- Type: in vivo
- testParameters: human, plasma, oral
measuredMetric: half-life (min)

{"molecule": "CCN1CCC[C@H]1CNC(=O)c1cc(S(N)(=O)=O)ccc1OC [Levosulpiride]", "measured": 763}

###

- protocolNotes: Pharmacokinetics of levosulpiride 50 mg alone and co-administered with omeprazole 40 mg in healthy human volunteers (Phase-1)
- Format: in vivo
- testParameters: human, plasma, oral, 50 mg

{"compound": "CCN1CCC[C@H]1CNC(=O)c1cc(S(N)(=O)=O)ccc1OC [Levosulpiride]", "Tmax": "3.8 h"}

###

- protocolNotes: Pharmacokinetics of levosulpiride 50 mg alone and co-administered with omeprazole 40 mg in healthy human volunteers (Phase-1)
- Format: in vivo
- testParameters: human, plasma, oral
measuredMetric: Tmax (h)

{"molecule": "CCN1CCC[C@H]1CNC(=O)c1cc(S(N)(=O)=O)ccc1OC [Levosulpiride]", "measuredMetric": "Tmax", "unitLabel": "h", "measured": 3.71}

###

- protocolNotes: Pharmacokinetics of omeprazole 40 mg alone and co-administered with levosulpiride 50 mg in healthy human volunteers (Phase-2)
- Format: in vivo
- testParameters: human, plasma, oral

{"compound": "COc1ccc2[nH]c([S+]([O-])Cc3ncc(C)c(OC)c3C)nc2c1 (stereo not shown) [Omeprazole]", "AUC(0-inf) [ng·h/mL]": 6490}

###

- protocolNotes: Pharmacokinetics of levosulpiride 50 mg alone and co-administered with omeprazole 40 mg in healthy human volunteers (Phase-1)
- Format: in vivo
- testParameters: human, plasma, oral, 50 mg
measuredMetric: AUC(0-inf) (ng·h/mL)

{"compound": "CCN1CCC[C@H]1CNC(=O)c1cc(S(N)(=O)=O)ccc1OC [Levosulpiride]", "measuredMetric": "AUC(0-inf)", "measured": 1870}

###

- protocolNotes: Pharmacokinetics of omeprazole 40 mg alone and co-administered with levosulpiride 50 mg in healthy human volunteers (Phase-2)
- Type: in vivo
- testParameters: plasma, oral; omeprazole 40 mg alone; healthy human volunteers (n = 20); mean ± SD
- Procedure: The developed method was applied for evaluation of pharmacokinetics drug-drug interaction between LSP and OMP in healthy human volunteers (n = 20). Both the drugs were administered to the healthy volunteers, their blood samples were collected at specified time points and analyzed for the drug content, using the developed method. Written consent form was signed by all the volunteers and purpose of the study was explained to them. They were physically examined and medical history was recorded. […]
measuredMetric: Tmax

{"compound": "COc1ccc2[nH]c([S+]([O-])Cc3ncc(C)c(OC)c3C)nc2c1 (stereo not shown)", "measured": "1.95 h"}

###

- protocolNotes: Pharmacokinetics of levosulpiride 50 mg alone and co-administered with omeprazole 40 mg in healthy human volunteers (Phase-1)
- Format: in vivo
- testParameters: human, plasma, oral

{"molecule": "CCN1CCC[C@H]1CNC(=O)c1cc(S(N)(=O)=O)ccc1OC [Levosulpiride]", "unitLabel": "ng/mL", "Cmax": 118}
